# IC50 per entry
# Tested on: MCF10A cells
# protocolSummary: Cell viability (neutral red), IC50
# Type: cell-based
# runConditions: Homo sapiens, MCF-10A, MCF10A normal breast epithelial cells, CompuSyn
A complete answer gives the number and then names the unit.

# inputSmiles, testSystem, IC50
data = [
    ("CC(=O)Oc1ccc(C[P+](c2ccccc2)(c2ccccc2)c2ccccc2)cc1.[Br-]", "MCF10A cells", "7.52 µM"),
]

We next turn to a different compound, shown below.
*Q* Using the record for O=C(Oc1ccc(C[P+](c2ccccc2)(c2ccccc2)c2ccccc2)cc1C(F)(F)F)c1ccccc1.[Br-] , report its IC50.
*A* 6.32 µM

* * *

# Tested on: HT29 cells
# protocolSummary: Cell viability (neutral red), IC50
# Type: cell-based
# runConditions: Homo sapiens, HT-29, HT29 colon cancer cells, CompuSyn
recordedMetric: IC50 (µM)
Please give a number only; it is taken to be in µM.

# inputSmiles, unitsOfMeasure, recordedNumber
measured = [
    ("CC(=O)Oc1ccc(C[P+](c2ccccc2)(c2ccccc2)c2ccccc2)cc1.[Br-]", "µM", 4.45),
]

We next turn to a different molecule, shown below.
*Q* Using the record for O=C(Oc1ccc(C[P+](c2ccccc2)(c2ccccc2)c2ccccc2)cc1C(F)(F)F)c1ccccc1.[Br-] , report its IC50.
*A* 3.81

Where do the numbers come from? From paper PMC5994430.
